meta.source: paper PMC9482650

subject_of_test: DLG2_3, Q15700
assay_summary: holdup assay
Parameters: key: below the threshold = too weak to quantify, mostly under pKd 3.1 to 4
setup_conditions: plain residues with an end cap or a label only (N-terminal biotin on a linker: ado-ado)
Values of pKd greater than or equal to 4 map to Criterion met; values below map to Criterion not met.

Reference set, count: 3
{"binder": "VDSTVKVWTC [TRAF7, Q6Q0C0]", "label_class": "Criterion not met"}
{"binder": "YLEPVLSSEL [ATP2A2, P16615]", "label_class": "Criterion not met"}
{"binder": "HLRARKSEWV [GJD4, Q96KN9]", "label_class": "Criterion met"}

Given the entry VNKSKLLTDV [KCNA1, Q09470] , answer whether its pKd meets or surpasses 4.
Criterion not met

Has QSARLWETSI [ADAM22, Q9P0K1] a recorded pKd greater than or equal to 4?
Criterion met

Record GNSVLKSTQF [SLC22A12, Q96S37] ; criterion: pKd no lower than 4. Met?
Criterion not met

Check if pKd >= 4 (inclusive). Item: RRLPGKETMA [GRIK2, Q13002]
Criterion not met

I'd appreciate it if you could say whether SAAKVLTSMC [GHRHR, Q02643] has pKd at least equal to 4.
Criterion not met

Is it the case that SAKVRTVTSV [RASL11B, Q9BPW5] has pKd reaching or exceeding 4?
Criterion met

Hi team, for NHSSSPETTA [TRMT13, Q9NUP7] , is the recorded pKd at or above 4?
Criterion not met

Confirm if pKd reported for the binder VKPQVSESKL [ACOT8, O14734] is 4 or above.
Criterion not met
